# System: SK-UT-1;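 also: growth inhibition of SK-UT-1 cells, measured by a cell viability assay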
# PROTOCOL: cells
# Type: functional, cell-based, Homo sapiens
# MEASUREMENT PARAMETERS: Homo sapiens, SK-UT-1
# Description: SANGER: Inhibition of human SK-UT-1 cell growth in a cell viability assay.
pIC50: −log10 of the molar value.
# maps each entry to its pIC50
MEASURED QUANTITY: pIC50

                                   compound  reported
0  CNC(=O)c1cc(Oc2ccc(NC(=O)Nc3ccc(Cl)c(C(F)(F)F)c3)cc2)ccn1    < 5.40
1  CC1=C2C[C@H]3[C@@H](CC=C4C[C@@H](O)CC[C@@]43C)[C@@H]2CC[C@]12O[C@@H]1C[C@H](C)CN[C@H]1[C@H]2C    < 4.80
2  COc1ccc(C2=N[C@@H](c3ccc(Cl)cc3)[C@@H](c3ccc(Cl)cc3)N2C(=O)N2CCNC(=O)C2)c(OC(C)C)c1    < 5.10
3  C=C1C(=O)O[C@@H]2C3O[C@]3(C)CC/C=C(\C)CC[C@@H]12 (some centres undefined)    < 5.30

---

# Test system: SK-OV-3;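 also: growth inhibition of SK-OV-3 human cells, read out with a cell viability assay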
# PROTOCOL: cells
# Assay type: functional, cell-based, Homo sapiens
# MEASUREMENT PARAMETERS: Homo sapiens, SK-OV-3
# Description: SANGER: Inhibition of human SK-OV-3 cell growth in a cell viability assay.
pIC50: −log10 of the molar value.
Below, each of the compounds is paired with its reported pIC50 value.
MEASURED QUANTITY: pIC50

>>> df
                                   compound  reported
0  CC(=O)O[C@@H]1[C@@H](OC(C)=O)[C@@H](O)[C@H](Oc2c(-c3ccc(O)cc3)oc3cc(O)cc(O)c3c2=O)O[C@H]1C    < 5.00
1  Cc1ccc(Nc2nccc(N(C)c3ccc4c(C)n(C)nc4c3)n2)cc1S(N)(=O)=O    < 5.10
2  O=c1cc(-c2cccc3c2Sc2ccccc2S3)oc(N2CCOCC2)c1    < 5.00
3   O=C1N=C(NCc2cccs2)S/C1=C\c1ccc2ncccc2c1    < 5.30
4  CCOc1nc(NC(=O)Cc2cc(OC)ccc2OC)cc(N)c1C#N    < 5.00
5  COc1cc(F)c(F)c(Nc2ccc(I)cc2F)c1NS(=O)(=O)C1(CC(O)CO)CC1 (stereo unspecified)    < 5.30

---

# Tested on: NH-12
# PROTOCOL: cells
# Format: functional, cell-based, Homo sapiens
# MEASUREMENT PARAMETERS: Homo sapiens, NH-12
# Description: SANGER: Inhibition of human NH-12 cell growth in a cell viability assay.
MEASURED QUANTITY: IC50 (nM)

                                   compound  unit_info  operator  reported
0  C=CCc1cccc(/C=N/NC(=O)CN2CCN(Cc3ccccc3)CC2)c1O         nM         =       987
1  COc1ccc(C2=N[C@@H](c3ccc(Cl)cc3)[C@@H](c3ccc(Cl)cc3)N2C(=O)N2CCNC(=O)C2)c(OC(C)C)c1         nM         =      4020
2  Cc1ccc(Nc2nccc(N(C)c3ccc4c(C)n(C)nc4c3)n2)cc1S(N)(=O)=O         nM         >      8000
3  CN(c1ncccc1CNc1nc(Nc2ccc3c(c2)CC(=O)N3)ncc1C(F)(F)F)S(C)(=O)=O         nM         >      2560
4  C=C1C(=O)O[C@@H]2C3O[C@]3(C)CC/C=C(\C)CC[C@@H]12 (stereo partly specified)         nM         >      5000
5  COc1cc(F)c(F)c(Nc2ccc(I)cc2F)c1NS(=O)(=O)C1(CC(O)CO)CC1 (stereo unspecified)         nM         =      1200

Where these numbers come from: ChEMBL document CHEMBL1201861
